system: USP28 (His-tagged USP28-FL-mammalian) (Homo sapiens, UniProt Q96RU2)
Construct: Expression of USP28 (1-1077)-TEV-6*His (pTT5 vector); made in house; host or cells: Expi293f cells (pTT5 vector)
run-description: Ubiquitin-Rhodamine 110 Assay for USP28 Activity, Example A-1(a)
Assay type: biochemical
condition: Ubiquitin-Rhodamine 110 assay, Example A-1(a); read-out: USP28 A-1(a) IC50 range
reported-metric: IC50

Examples from the recorded data:
{"compound": "Cc1ccc2c(N)c(C(=O)N[C@H]3CCc4nc(N5C[C@H](N)[C@H](C(F)F)C5)ccc4C3)sc2n1", "IC50": "50 to 200 nM"}
{"compound": "Cc1ccc2c(N)c(C(=O)N[C@H]3CCc4nc(N5C[C@H](N)[C@H](OC(C)C)C5)ccc4C3)sc2n1", "IC50": "200 to 2000 nM"}
{"compound": "N#Cc1c(N2CC3CCC(C2)N3)cc(F)c2c1OC[C@H](NC(=O)c1cnc3c(c1)[C@@H]1C[C@@H]1CN3)C2", "IC50": "200 to 2000 nM"}

QUERY: IC50 lookup needed for `O=C(N[C@@H]1COc2cc(N3CCNCC3)ccc2C1)c1cnc2c(ccn2C(F)F)c1` , thanks.
RESULT: > 2000 nM

QUERY: IC50 lookup needed for `CCn1ccc2cc(C(=O)N[C@H]3CCc4nc(N5C[C@@H](N)[C@H](C(F)F)C5)ccc4C3)cnc21` , thanks.
RESULT: 200 to 2000 nM

QUERY: IC50 lookup needed for `CO[C@H]1CN(c2ccc3c(n2)CC[C@H](NC(=O)c2sc4nc(C)c(F)cc4c2N)C3)C[C@@H]1N` , thanks.
RESULT: 50 to 200 nM

QUERY: IC50 lookup needed for Cc1ccc2c(N)c(C(=O)N[C@H]3CCc4nc(N5C[C@@H](N)C6(C5)OCCO6)ccc4C3)sc2n1 (single isomer, unassigned) , thanks.
RESULT: 200 to 2000 nM

QUERY: IC50 lookup needed for `COC[C@H]1CN(c2cc(F)c3c(c2)OC[C@H](NC(=O)c2sc4nc(C)ccc4c2N)C3)C[C@H]1N` , thanks.
RESULT: 1 to 50 nM

QUERY: IC50 lookup needed for `CCO[C@@H]1CN(c2ccc3c(c2)CC[C@H](NC(=O)c2sc4nc(C)ccc4c2N)C3)C[C@@H]1N` , thanks.
RESULT: 50 to 200 nM

QUERY: IC50 lookup needed for `O=C(N[C@H]1COc2cc(N3CCNCC3)ccc2C1)c1cnn2c(CO)cccc12` , thanks.
RESULT: 200 to 2000 nM

QUERY: IC50 lookup needed for `Cc1ccc2c(N)c(C(=O)N[C@H]3CCc4nc(N5CC[C@H]6CNC[C@H]65)ccc4C3)sc2n1` , thanks.
RESULT: 1 to 50 nM

QUERY: IC50 lookup needed for `Cc1ccc2c(N)c(C(=O)N[C@H]3COc4c(F)c(N5C[C@@H]6C[C@H]5CN6)cc(F)c4C3)sc2n1` , thanks.
RESULT: 1 to 50 nM

QUERY: IC50 lookup needed for `COC[C@H]1CN(c2ccc3c(n2)CC[C@H](NC(=O)c2sc4nc(C)cc(C)c4c2N)C3)C[C@H]1N` , thanks.
RESULT: 1 to 50 nM

QUERY: IC50 lookup needed for `CO[C@H]1CN(c2ncc3c(n2)CC[C@H](NC(=O)c2sc4nc(C)cc(C)c4c2N)C3)C[C@@H]1N` , thanks.
RESULT: > 2000 nM

QUERY: IC50 lookup needed for `Cc1ccc2c(N)c(C(=O)N[C@H]3COc4cc(N5CC[C@H]6CNC[C@H]65)cc(F)c4C3)sc2n1` , thanks.
RESULT: 1 to 50 nM

QUERY: IC50 lookup needed for `COC[C@H]1CN(c2cc(F)c3c(c2F)OC[C@H](NC(=O)c2sc4nc(C)cc(C)c4c2N)C3)C[C@H]1N` , thanks.
RESULT: 1 to 50 nM

###

system: USP28 (USP28-5(1-1077)-TEV-6*His; LifeSensors) (Homo sapiens, UniProt Q96RU2)
Construct: construct USP28 (USP28-5(1-1077)-TEV-6*His; LifeSensors); TEV cleavage site (C); 6xHis (C); purchased LifeSensors
Sequence (Q96RU2 whole entry): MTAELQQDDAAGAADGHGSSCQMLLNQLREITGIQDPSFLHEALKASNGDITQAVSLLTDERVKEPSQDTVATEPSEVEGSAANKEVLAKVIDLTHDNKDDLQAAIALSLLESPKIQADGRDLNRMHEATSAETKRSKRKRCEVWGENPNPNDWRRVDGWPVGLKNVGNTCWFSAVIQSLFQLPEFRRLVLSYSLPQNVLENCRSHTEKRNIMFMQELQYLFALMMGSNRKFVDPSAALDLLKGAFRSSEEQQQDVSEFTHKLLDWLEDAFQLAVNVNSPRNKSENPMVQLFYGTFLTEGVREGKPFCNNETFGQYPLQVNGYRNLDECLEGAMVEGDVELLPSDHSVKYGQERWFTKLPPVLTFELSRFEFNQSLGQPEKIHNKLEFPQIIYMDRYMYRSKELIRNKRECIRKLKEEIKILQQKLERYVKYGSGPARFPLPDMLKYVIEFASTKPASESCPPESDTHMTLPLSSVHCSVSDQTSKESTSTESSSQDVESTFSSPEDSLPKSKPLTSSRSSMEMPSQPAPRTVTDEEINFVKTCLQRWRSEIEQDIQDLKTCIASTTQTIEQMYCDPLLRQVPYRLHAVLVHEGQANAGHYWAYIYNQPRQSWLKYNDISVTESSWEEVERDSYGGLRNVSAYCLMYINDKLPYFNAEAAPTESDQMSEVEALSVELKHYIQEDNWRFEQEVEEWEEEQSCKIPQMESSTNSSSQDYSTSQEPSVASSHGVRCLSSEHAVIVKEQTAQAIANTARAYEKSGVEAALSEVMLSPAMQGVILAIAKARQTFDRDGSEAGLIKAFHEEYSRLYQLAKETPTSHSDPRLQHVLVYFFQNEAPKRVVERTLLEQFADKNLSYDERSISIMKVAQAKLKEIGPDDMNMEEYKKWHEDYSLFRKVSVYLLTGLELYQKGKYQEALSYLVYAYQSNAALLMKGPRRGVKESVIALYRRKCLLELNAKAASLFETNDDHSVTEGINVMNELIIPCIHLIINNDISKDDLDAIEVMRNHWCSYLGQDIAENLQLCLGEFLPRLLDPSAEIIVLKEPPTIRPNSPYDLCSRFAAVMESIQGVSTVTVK
run-description: Ubiquitin-Rhodamine 110 Assay for USP28 Activity, Example A-1(b)
Format: biochemical
condition: Ubiquitin-Rhodamine 110 assay, format Example A-1(b)
reported-metric: USP28 A-1(b) IC50 range

{"compound": "Cc1ccc2c(N)c(C(=O)N[C@H]3CCc4cc(N5CCNCC5)c(F)cc4C3)sc2n1 (single isomer, unassigned)", "USP28 A-1(b) IC50 range": "+ (>2 μM)"}
{"compound": "Cc1ccc2c(N)c(C(=O)N[C@H]3CCc4cc(N5CC6CCC(C5)N6)c(C#N)cc4C3)sc2n1 (single isomer, unassigned)", "USP28 A-1(b) IC50 range": "++++ (0.001-0.05 μM)"}
{"compound": "Cc1ccc2c(N)c(C(=O)N[C@H]3CCc4cc(N5CC6CNCC(C5)O6)cc(F)c4C3)sc2n1 (single isomer, unassigned)", "USP28 A-1(b) IC50 range": "++ (0.2-2 μM)"}
{"compound": "Cc1ccc2c(N)c(C(=O)N[C@@H]3CCc4c(C#N)c(N5CCNCC5)cc(F)c4C3)sc2n1", "USP28 A-1(b) IC50 range": "+ (>2 μM)"}
{"compound": "Cc1ccc2c(N)c(C(=O)N[C@@H]3CCc4cc(N5CCNCC5)cnc4C3)sc2n1 (single isomer, unassigned)", "USP28 A-1(b) IC50 range": "+ (>2 μM)"}
{"compound": "Cc1ccc2c(N)c(C(=O)N[C@H]3CCc4c(F)c(N5CCNCC5)cc(F)c4C3)sc2n1 (single isomer, unassigned)", "USP28 A-1(b) IC50 range": "++ (0.2-2 μM)"}

QUERY: USP28 A-1(b) IC50 range lookup needed for Cc1ccc2c(N)c(C(=O)N[C@@H]3CCc4cc(N5C6CNCC5C6)ccc4C3)sc2n1 (single isomer, unassigned) , thanks.
RESULT: ++ (0.2-2 μM)

QUERY: USP28 A-1(b) IC50 range lookup needed for Cc1ccc2c(N)c(C(=O)N[C@H]3COc4c(F)c(N5CC6CCC(C5)N6)cc(F)c4C3)sc2n1 (single isomer, unassigned) , thanks.
RESULT: ++++ (0.001-0.05 μM)

QUERY: USP28 A-1(b) IC50 range lookup needed for `Cc1ccc2c(N)c(C(=O)N[C@H]3COc4cc(N5CCNCC5)ncc4C3)sc2n1` , thanks.
RESULT: ++ (0.2-2 μM)

QUERY: USP28 A-1(b) IC50 range lookup needed for Cc1ccc2c(N)c(C(=O)N[C@@H]3CCc4c(ccc(N5CC6CCC(C5)N6)c4C#N)C3)sc2n1 (single isomer, unassigned) , thanks.
RESULT: ++++ (0.001-0.05 μM)

QUERY: USP28 A-1(b) IC50 range lookup needed for Cc1cnc2c(N)c(C(=O)N[C@H]3CCc4cc(N5CCNCC5)cc(F)c4C3)sc2n1 (single isomer, unassigned) , thanks.
RESULT: +++ (0.05-0.2 μM)

QUERY: USP28 A-1(b) IC50 range lookup needed for Cc1cnc2c(N)c(C(=O)N[C@H]3CCc4cc(N5CC6CCC(C5)N6)c(C#N)cc4C3)sc2n1 (single isomer, unassigned) , thanks.
RESULT: ++++ (0.001-0.05 μM)

QUERY: USP28 A-1(b) IC50 range lookup needed for `Cc1ccc2c(N)c(C(=O)N[C@@H]3COc4cc(N5CC6CCC(C5)N6)c(F)c(F)c4C3)sc2n1` , thanks.
RESULT: ++++ (0.001-0.05 μM)

QUERY: USP28 A-1(b) IC50 range lookup needed for `Cc1ccc2c(N)c(C(=O)N[C@H]3COc4cc(N5CCNCC5)c(Cl)cc4C3)sc2n1` , thanks.
RESULT: + (>2 μM)

QUERY: USP28 A-1(b) IC50 range lookup needed for Cc1cnc2c(N)c(C(=O)N[C@@H]3CCc4cc(N5C[C@@H]6C[C@H]5CN6)ccc4C3)sc2n1 (single isomer, unassigned) , thanks.
RESULT: ++ (0.2-2 μM)

QUERY: USP28 A-1(b) IC50 range lookup needed for Cc1cnc2c(N)c(C(=O)N[C@@H]3CCc4c(ccc(N5CC6CCC(C5)N6)c4C#N)C3)sc2n1 (single isomer, unassigned) , thanks.
RESULT: +++ (0.05-0.2 μM)

QUERY: USP28 A-1(b) IC50 range lookup needed for Cc1ccc2c(N)c(C(=O)N[C@@H]3CCc4cc(N5CC6CNCC(C5)O6)cc(F)c4C3)sc2n1 (single isomer, unassigned) , thanks.
RESULT: ++++ (0.001-0.05 μM)

QUERY: USP28 A-1(b) IC50 range lookup needed for Cc1nc2sc(C(=O)N[C@@H]3CCc4cc(N5CCNCC5)ccc4C3)c(N)c2s1 (single isomer, unassigned) , thanks.
RESULT: ++ (0.2-2 μM)

QUERY: USP28 A-1(b) IC50 range lookup needed for Cc1cnc2c(N)c(C(=O)N[C@H]3CCc4c(ccc(N5CC6CCC(C5)N6)c4C#N)C3)sc2n1 (single isomer, unassigned) , thanks.
RESULT: + (>2 μM)

QUERY: USP28 A-1(b) IC50 range lookup needed for Cc1ccc2c(N)c(C(=O)N[C@H]3CCc4c(ccc(N5CC6CCC(C5)N6)c4C#N)C3)sc2n1 (single isomer, unassigned) , thanks.
RESULT: ++ (0.2-2 μM)

QUERY: USP28 A-1(b) IC50 range lookup needed for Cc1ccc2c(N)c(C(=O)N[C@@H]3CCc4c(F)c(N5CCNCC5)cc(F)c4C3)sc2n1 (single isomer, unassigned) , thanks.
RESULT: +++ (0.05-0.2 μM)

QUERY: USP28 A-1(b) IC50 range lookup needed for Cc1ccc2c(N)c(C(=O)N[C@H]3CCc4cc(N5C6CNCC5C6)ccc4C3)sc2n1 (single isomer, unassigned) , thanks.
RESULT: ++ (0.2-2 μM)

QUERY: USP28 A-1(b) IC50 range lookup needed for `Cc1cnc2c(N)c(C(=O)N[C@@H]3CCc4c(C#N)c(N5CCNCC5)cc(F)c4C3)sc2n1` , thanks.
RESULT: ++ (0.2-2 μM)

QUERY: USP28 A-1(b) IC50 range lookup needed for Cc1ccc2c(N)c(C(=O)N[C@@H]3COc4cc(N5CCNCC5)c(Cl)cc4C3)sc2n1 (single isomer, unassigned) , thanks.
RESULT: +++ (0.05-0.2 μM)

QUERY: USP28 A-1(b) IC50 range lookup needed for Cc1ccc2c(N)c(C(=O)N[C@@H]3CCc4cc(N5CC6CCC(C5)N6)c(F)cc4C3)sc2n1 (single isomer, unassigned) , thanks.
RESULT: ++++ (0.001-0.05 μM)
